methodNotes: Photophysical characterization: absorption maxima and extinction coefficients (Lambda 2-spectrometer)
Assay type: physicochemical
conditions: dyes 7-14 table; formulation with Gd-complex perfluoroalkyl derivative (WO 97/26017 Ex. 33); 5 mol % of dye
Counter-ions that a name gives are not always drawn.
Absorption max. by entry:
# output: bare number, implied unit nm

Below: 5 compounds and their reported Absorption max..
| compound | unitTag | Absorption max. |
| --- | --- | --- |
| CCN1C(=CC=CC=CC2=[N+](CCCCS(=O)(=O)[O-])c3ccc(C(=O)N(CCOCCC(F)(F)C(F)(F)C(F)(F)C(F)(F)C(F)(F)C(F)(F)C(F)(F)C(F)(F)F)CC(O)CO)cc3C2(C)C)C(C)(C)c2ccccc21 (stereo not drawn) [Dye 13, sodium salt] | nm | 650 |
| CC1(C)C(=CC=CC=CC=CC2=[N+](CCCCS(=O)(=O)[O-])c3ccc(C(=O)N(CCOCCC(F)(F)C(F)(F)C(F)(F)C(F)(F)C(F)(F)C(F)(F)C(F)(F)C(F)(F)F)CC(O)CO)cc3C2(C)C)N(CCCCS(=O)(=O)[O-])c2ccccc21.[Na+] (stereo not drawn) [Dye 10] | nm | 753 |
| CCN1C(=CC=CC=CC=CC2=[N+](CCCCS(=O)(=O)[O-])c3ccc(C(=O)N(CCOCCC(F)(F)C(F)(F)C(F)(F)C(F)(F)C(F)(F)C(F)(F)C(F)(F)C(F)(F)F)CC(O)CO)cc3C2(C)C)C(C)(C)c2ccccc21 (stereo not drawn) [Dye 14, sodium salt] | nm | 753 |
| CCN1C(=CC=CC=CC2=[N+](CCCCS(=O)(=O)[O-])c3ccc(C(=O)NCCOCCC(F)(F)C(F)(F)C(F)(F)C(F)(F)C(F)(F)C(F)(F)C(F)(F)C(F)(F)F)cc3C2(C)C)C(C)(C)c2ccccc21 [Dye 11, sodium salt] | nm | 653 |
| CC1(C)C(=CC=CC=CC2=[N+](CCCCS(=O)(=O)[O-])c3ccc(C(=O)N(CCOCCC(F)(F)C(F)(F)C(F)(F)C(F)(F)C(F)(F)C(F)(F)C(F)(F)C(F)(F)F)CC(O)CO)cc3C2(C)C)N(CCCCS(=O)(=O)[O-])c2ccccc21.[Na+] (stereo not drawn) [Dye 9] | nm | 651 |

As a next step, examine the compound that follows.
Dear colleague, please send me the reported Absorption max. for CCN1C(=CC=CC=CC=CC2=[N+](CCCCS(=O)(=O)[O-])c3ccc(C(=O)NCCOCCC(F)(F)C(F)(F)C(F)(F)C(F)(F)C(F)(F)C(F)(F)C(F)(F)C(F)(F)F)cc3C2(C)C)C(C)(C)c2ccccc21 [Dye 12, sodium salt] when you can.
754

Values were extracted from patent US6447749B1.
